// pKd lookup, one value per entry
# targetOfAssay: T1, MutS-E38A (Escherichia coli, UniProt P23909 1-853, E38A)
# T1 sequence: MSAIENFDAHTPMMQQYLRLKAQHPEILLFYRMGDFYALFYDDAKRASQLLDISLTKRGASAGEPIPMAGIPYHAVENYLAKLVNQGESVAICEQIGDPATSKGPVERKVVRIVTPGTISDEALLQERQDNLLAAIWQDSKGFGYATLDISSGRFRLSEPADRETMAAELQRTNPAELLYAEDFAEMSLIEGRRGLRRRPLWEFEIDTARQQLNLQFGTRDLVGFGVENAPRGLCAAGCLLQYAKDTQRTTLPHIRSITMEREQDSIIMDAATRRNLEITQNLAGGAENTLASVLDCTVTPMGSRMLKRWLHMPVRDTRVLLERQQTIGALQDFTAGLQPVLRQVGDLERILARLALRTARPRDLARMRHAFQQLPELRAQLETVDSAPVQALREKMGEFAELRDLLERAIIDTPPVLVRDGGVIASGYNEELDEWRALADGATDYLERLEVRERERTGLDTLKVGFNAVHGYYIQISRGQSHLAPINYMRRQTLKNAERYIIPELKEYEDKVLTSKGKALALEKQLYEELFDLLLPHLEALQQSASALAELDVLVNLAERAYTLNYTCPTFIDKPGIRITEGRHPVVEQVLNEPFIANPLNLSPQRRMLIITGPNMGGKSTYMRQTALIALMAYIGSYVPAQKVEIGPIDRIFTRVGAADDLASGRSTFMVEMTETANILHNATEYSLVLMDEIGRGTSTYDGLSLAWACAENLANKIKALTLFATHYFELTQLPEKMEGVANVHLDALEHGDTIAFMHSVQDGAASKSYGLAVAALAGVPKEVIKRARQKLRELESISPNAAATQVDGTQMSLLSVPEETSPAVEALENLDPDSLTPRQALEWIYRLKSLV
# testProtocol: fluorescence anisotropy
pKd: −log10 of the molar value.

{"columns": ["binder", "pKd"],
 "data": [
  ["CP-GpG/CC cisplatinated homoduplex 30mer (dsDNA, cisplatin 1,2-GpG intrastrand cross-link at G9-G10 of strand 1) DNA 1: ACCTGTCTGGCAACACTGTCACCGTCGTAT DNA 2: ATACGACGGTGACAGTGTTGCCAGACAGGT", 6.22],
  ["CP-GpG/CT cisplatinated mismatch 30mer (dsDNA, cisplatin 1,2-GpG intrastrand cross-link at G9-G10 of strand 1) DNA 1: ACCTGTCTGGCAACACTGTCACCGTCGTAT DNA 2: ATACGACGGTGACAGTGTTGCTAGACAGGT", 6.70],
  ["G/C homoduplex 30mer (dsDNA) DNA 1: ACCTGTCTGGCAACACTGTCACCGTCGTAT DNA 2: ATACGACGGTGACAGTGTTGCCAGACAGGT", 6.21],
  ["G/T mismatch heteroduplex 30mer (dsDNA) DNA 1: ACCTGTCTGGCAACACTGTCACCGTCGTAT DNA 2: ATACGACGGTGACAGTGTTGCTAGACAGGT", 6.80]
]}
